- target_system: UniProt:Q12809
- Sequence (Q12809 whole entry): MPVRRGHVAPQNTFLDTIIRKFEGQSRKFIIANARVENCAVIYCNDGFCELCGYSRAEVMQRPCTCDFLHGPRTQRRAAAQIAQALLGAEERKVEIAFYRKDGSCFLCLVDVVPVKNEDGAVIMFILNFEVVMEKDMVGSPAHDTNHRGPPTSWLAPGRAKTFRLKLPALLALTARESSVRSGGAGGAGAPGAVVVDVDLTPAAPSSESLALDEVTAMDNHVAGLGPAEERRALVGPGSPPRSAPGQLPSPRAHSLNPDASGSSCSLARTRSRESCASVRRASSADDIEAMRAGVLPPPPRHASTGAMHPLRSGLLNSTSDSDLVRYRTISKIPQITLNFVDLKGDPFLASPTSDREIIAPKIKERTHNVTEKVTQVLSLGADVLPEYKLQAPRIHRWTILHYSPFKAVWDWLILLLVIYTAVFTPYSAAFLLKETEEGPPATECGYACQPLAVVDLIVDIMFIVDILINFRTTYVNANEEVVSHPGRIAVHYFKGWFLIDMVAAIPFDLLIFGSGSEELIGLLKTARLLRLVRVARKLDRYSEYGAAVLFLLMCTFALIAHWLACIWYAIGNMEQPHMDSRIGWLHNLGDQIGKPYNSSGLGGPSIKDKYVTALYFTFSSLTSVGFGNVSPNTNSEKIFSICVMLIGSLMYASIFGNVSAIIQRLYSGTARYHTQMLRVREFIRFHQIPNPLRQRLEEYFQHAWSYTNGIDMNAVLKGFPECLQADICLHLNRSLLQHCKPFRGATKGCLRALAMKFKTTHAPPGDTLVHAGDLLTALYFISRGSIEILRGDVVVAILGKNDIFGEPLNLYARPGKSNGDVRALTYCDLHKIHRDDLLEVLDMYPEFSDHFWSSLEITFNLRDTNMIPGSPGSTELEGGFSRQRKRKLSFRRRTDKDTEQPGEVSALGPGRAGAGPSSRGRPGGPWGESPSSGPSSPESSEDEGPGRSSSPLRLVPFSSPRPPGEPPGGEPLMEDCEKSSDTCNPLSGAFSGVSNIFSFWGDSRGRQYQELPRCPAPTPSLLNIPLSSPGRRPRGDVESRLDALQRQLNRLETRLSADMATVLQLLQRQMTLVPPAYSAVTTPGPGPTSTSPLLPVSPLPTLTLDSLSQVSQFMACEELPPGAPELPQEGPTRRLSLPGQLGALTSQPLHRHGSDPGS
- test_method_notes: Kv11.1 (hERG) ion channel activity (patch clamp assay), HEK293 cells transfected with hERG gene
- experimental_parameters: read-out: Ki [Kv1.11 hERG]; hERG patch clamp assay (cells without asterisk)
pKi: −log10 of the molar value.
Form field: pKi (one value per entry).

• OC(c1cc(-c2ncnc3cc(N4CCOCC4)ccc23)c(F)cc1Cl)c1nccn2cccc12 (stereo not shown) = > 5.00
• Cn1c(C(O)c2cc(-c3ncnc4cc(N5CCOCC5)ccc34)c(F)cc2F)cccc1=O (stereo not shown) [Example 436] = < 4.60
• Cc1nccnc1[C@H](O)c1ccc(F)c(-c2ncnc3cc(N4CCOCC4)cnc23)c1 = < 4.60
• Cn1c(C(O)c2cc(-c3ncnc4cc(N5CCOCC5)ccc34)c(F)cc2Cl)nccc1=O (stereo not shown) = < 4.60
• Cn1c(C(O)c2ccc(F)c(-c3ncnc4cc(N5CCOCC5)ccc34)c2)cccc1=O (stereo not shown) [Example 375] = < 4.60
• OC(c1cc(-c2ncnc3cc(N4CCOCC4)ccc23)ccc1Cl)c1ncnn2cccc12 (stereo not shown) = > 5.00
• OC(c1ccc(F)c(-c2ncnc3cc(N4CCOCC4)ccc23)c1)c1ncnc2occc12 (stereo not shown) = < 4.60
• COc1ccc(C(O)c2cc(-c3ncnc4cc(N5CCOCC5)cnc34)c(F)cc2Cl)nn1 (stereo not shown) [Example 228] = < 4.60
• Cc1cnc(C(C(N)=O)c2cc(-c3ncnc4cc(N5CCOCC5)ccc34)c(F)cc2Cl)c(C)n1 (stereo not shown) = < 4.60
• Nc1cncc(C(O)c2ccc(F)c(-c3ncnc4cc(N5CCOCC5)ccc34)c2)n1 (stereo not shown) = < 4.60

Recorded pKi for COc1ccc(C(C(N)=O)c2cc(-c3ncnc4cc(N5CCOCC5)ccc34)c(F)cc2F)nn1 (stereo not shown) , please?
< 4.60

Entry OC(c1ccc(F)c(-c2ncnc3cc(N4CCOCC4)ccc23)c1)c1ncnc2ccoc12 (stereo not shown) has what pKi?
< 4.60

Could you share which pKi value was measured for Cn1c(C(O)c2cc(-c3ncnc4cc(N5CCOCC5)ccc34)ccc2Cl)cccc1=O (single isomer, unassigned) ?
< 4.60

What does the record list as pKi for COc1ccc(C(O)c2cc(-c3ncnc4cc(N5CCOCC5)cnc34)c(F)cc2Cl)nn1 (stereo not shown) [Example 257] ?
< 4.60

I have this compound here, COc1ccc(C(O)c2cc(-c3ncnc4cc(N5CCOCC5)cc(F)c34)c(F)cc2Cl)nn1 (single isomer, unassigned) , and I need its recorded pKi.
< 4.60

Fill blank: measured pKi of the compound O=c1ccc(C(O)c2ccc(F)c(-c3ncnc4cc(N5CCOCC5)ccc34)c2)n[nH]1 (stereo not shown) is ____.
< 4.60

----------
- target_system: UniProt:P78527
- test_method_notes: DNA-PK assay (biochemical), flashplate 33P-ATP kinase assay
- experimental_parameters: biochemical DNA-PK assay
value_type: IC50

Name the reported IC50 value associated with the molecule OC(c1cc(-c2ncnc3cc(N4CCOCC4)ccc23)ccc1Cl)c1ncnc2ccoc12 (stereo not shown) [Example 414]
7 to 30 nM

Entry under review: OC(c1ccc(F)c(-c2ncnc3cc(N4CCOCC4)ccc23)c1)c1ncnc2occc12 (stereo not shown) [Example 434] . Reported IC50?
< 3 nM

Given the molecule COc1nccnc1C(O)c1ccc(F)c(-c2ncnc3cc(N4CCOCC4)cc(F)c23)c1 (stereo not shown) [Example 267] , what is its reported IC50?
< 3 nM

Value lookup for IC50; key = OC(c1cc(-c2ncnc3cc(N4CCOCC4)ccc23)ccc1Cl)c1ncnn2cccc12 (stereo not shown) [Example 362]
3 to 7 nM
